Test system: corn (Zea mays)
Assay: Test C pre-/postemergence greenhouse test
Format: in vivo
Conditions: Postemergence, 31 g ai/ha; scale 0 to 100
REPORTED METRIC: Plant response rating, Corn
Note: the reply should be a number with no unit written.

{"STRUCTURE NOTATION": "Cc1ccc2ccc(C)c(-c3c(O)c(Cl)nn(C)c3=O)c2c1", "Plant response rating, Corn": 5}
{"STRUCTURE NOTATION": "Cc1cc(Cl)c2ccccc2c1-c1c(O)c(Cl)nn(C)c1=O", "Plant response rating, Corn": 40}
{"STRUCTURE NOTATION": "Cc1ccc2ccc(Cl)cc2c1-c1c(O)c(Cl)nn(C)c1=O", "Plant response rating, Corn": 20}

Turning now to a further compound:
Hey, corn (Zea mays) data for Cc1ccc2ccc(F)cc2c1-c1c(O)c(Cl)nn(C)c1=O : Plant response rating, Corn came out at 0

---

Here the recorded Plant response rating, Waterhemp is given for each entry.
Tested on: waterhemp (common waterhemp, Amaranthus rudis)
Assay: Test C pre-/postemergence greenhouse test
Assay type: in vivo
Conditions: Preemergence, 31 g ai/ha; scale 0 to 100
Note: the reply should be a number with no unit written.

{"COMPOUND": "Cc1ccc2ccc(F)cc2c1-c1c(O)c(Cl)nn(C)c1=O [Cpd. No. 21]", "ASSAYED SYSTEM": "waterhemp (common waterhemp, Amaranthus rudis)", "RECORDED NUMBER": 85}
{"COMPOUND": "Cc1ccc2ccc(Cl)cc2c1-c1c(O)c(Cl)nn(C)c1=O [Cpd. No. 22]", "ASSAYED SYSTEM": "waterhemp (common waterhemp, Amaranthus rudis)", "RECORDED NUMBER": 85}
{"COMPOUND": "Cc1cc(Cl)c2ccccc2c1-c1c(O)c(Cl)nn(C)c1=O [Cpd. No. 65]", "ASSAYED SYSTEM": "waterhemp (common waterhemp, Amaranthus rudis)", "RECORDED NUMBER": 75}

Turning now to a further compound:
The recorded Plant response rating, Waterhemp for entry Cc1ccc2ccc(C)c(-c3c(O)c(Cl)nn(C)c3=O)c2c1 [Cpd. No. 20] equals 100

---

Test system: oilseed rape (Brassica napus)
Assay: Test C pre-/postemergence greenhouse test
Type: in vivo
Conditions: Preemergence, 125 g ai/ha; scale 0 to 100
Here the recorded Plant response rating, Oilseed Rape is given for each entry.
Note: the reply should be a number with no unit written.

{"STRUCTURE NOTATION": "Cc1ccc2ccc(F)cc2c1-c1c(O)c(Cl)nn(C)c1=O", "Plant response rating, Oilseed Rape": 100}
{"STRUCTURE NOTATION": "Cc1ccc2ccc(Cl)cc2c1-c1c(O)c(Cl)nn(C)c1=O", "Plant response rating, Oilseed Rape": 100}

The recorded Plant response rating, Oilseed Rape for entry Cc1ccc2ccc(C)c(-c3c(O)c(Cl)nn(C)c3=O)c2c1 equals 0

The recorded Plant response rating, Oilseed Rape for entry Cc1cc(Cl)c2ccccc2c1-c1c(O)c(Cl)nn(C)c1=O equals 100

---

Tested on: kochia (Kochia scoparia)
Test: Test C pre-/postemergence greenhouse test
Type: in vivo
Conditions: Postemergence, 31 g ai/ha; scale 0 to 100
Here the recorded Plant response rating, Kochia is given for each entry.
Note: the reply should be a number with no unit written.

The recorded Plant response rating, Kochia for entry Cc1cc(Cl)c2ccccc2c1-c1c(O)c(Cl)nn(C)c1=O equals 55

The recorded Plant response rating, Kochia for entry Cc1ccc2ccc(F)cc2c1-c1c(O)c(Cl)nn(C)c1=O equals 18

The recorded Plant response rating, Kochia for entry Cc1ccc2ccc(Cl)cc2c1-c1c(O)c(Cl)nn(C)c1=O equals 35

The recorded Plant response rating, Kochia for entry Cc1ccc2ccc(C)c(-c3c(O)c(Cl)nn(C)c3=O)c2c1 equals 85

---

Here the recorded Plant response rating, Soybean is given for each entry.
Tested on: soybean (Glycine max)
Assay: Test C pre-/postemergence greenhouse test
Assay type: in vivo
Details: Preemergence, 125 g ai/ha; scale 0 to 100
Note: the reply should be a number with no unit written.

Some molecules with recorded Plant response rating, Soybean:
{"STRUCTURE NOTATION": "Cc1cc(Cl)c2ccccc2c1-c1c(O)c(Cl)nn(C)c1=O", "Plant response rating, Soybean": 30}
{"STRUCTURE NOTATION": "Cc1ccc2ccc(F)cc2c1-c1c(O)c(Cl)nn(C)c1=O", "Plant response rating, Soybean": 0}
{"STRUCTURE NOTATION": "Cc1ccc2ccc(C)c(-c3c(O)c(Cl)nn(C)c3=O)c2c1", "Plant response rating, Soybean": 60}

Turning now to a further molecule:
Hey, soybean (Glycine max) data for Cc1ccc2ccc(Cl)cc2c1-c1c(O)c(Cl)nn(C)c1=O : Plant response rating, Soybean came out at 30

---

System: waterhemp (common waterhemp, Amaranthus rudis)
Assay: Test C pre-/postemergence greenhouse test
Type: in vivo
Conditions: Preemergence, 61 g ai/ha; scale 0 to 100
REPORTED METRIC: Plant response rating, Waterhemp
Note: the reply should be a number with no unit written.

Some compounds with recorded Plant response rating, Waterhemp:
{"STRUCTURE NOTATION": "Cc1ccc2ccc(F)cc2c1-c1c(O)c(Cl)nn(C)c1=O", "Plant response rating, Waterhemp": 80}
{"STRUCTURE NOTATION": "Cc1cc(Cl)c2ccccc2c1-c1c(O)c(Cl)nn(C)c1=O", "Plant response rating, Waterhemp": 80}
{"STRUCTURE NOTATION": "Cc1ccc2ccc(Cl)cc2c1-c1c(O)c(Cl)nn(C)c1=O", "Plant response rating, Waterhemp": 70}

Hey, waterhemp (common waterhemp, Amaranthus rudis) data for Cc1ccc2ccc(C)c(-c3c(O)c(Cl)nn(C)c3=O)c2c1 : Plant response rating, Waterhemp came out at 65

---

Tested on: waterhemp (common waterhemp, Amaranthus rudis)
Experiment: Test C pre-/postemergence greenhouse test
Format: in vivo
Conditions: Preemergence, 62 g ai/ha; scale 0 to 100
Excerpt: […]
Here the recorded Plant response rating, Waterhemp is given for each entry.

Some molecules with recorded Plant response rating, Waterhemp:
{"STRUCTURE NOTATION": "Cc1cc(Cl)c2ccccc2c1-c1c(O)c(Cl)nn(C)c1=O", "ASSAYED SYSTEM": "waterhemp (common waterhemp, Amaranthus rudis)", "Plant response rating, Waterhemp": 85}
{"STRUCTURE NOTATION": "Cc1ccc2ccc(F)cc2c1-c1c(O)c(Cl)nn(C)c1=O", "ASSAYED SYSTEM": "waterhemp (common waterhemp, Amaranthus rudis)", "Plant response rating, Waterhemp": 95}
{"STRUCTURE NOTATION": "Cc1ccc2ccc(C)c(-c3c(O)c(Cl)nn(C)c3=O)c2c1", "ASSAYED SYSTEM": "waterhemp (common waterhemp, Amaranthus rudis)", "Plant response rating, Waterhemp": 100}

Turning now to a further molecule:
The recorded Plant response rating, Waterhemp for entry Cc1ccc2ccc(Cl)cc2c1-c1c(O)c(Cl)nn(C)c1=O equals 95

---

Here the recorded Plant response rating, Morningglory is given for each entry.
Test system: morningglory (Ipomoea coccinea)
Experiment: Test C pre-/postemergence greenhouse test
Type: in vivo
Conditions: Preemergence, 125 g ai/ha; scale 0 to 100
Note: the reply should be a number with no unit written.

{"MOLECULE": "Cc1cc(Cl)c2ccccc2c1-c1c(O)c(Cl)nn(C)c1=O [Cpd. No. 65]", "ASSAYED SYSTEM": "morningglory (Ipomoea coccinea)", "Plant response rating, Morningglory": 95}

The recorded Plant response rating, Morningglory for entry Cc1ccc2ccc(F)cc2c1-c1c(O)c(Cl)nn(C)c1=O [Cpd. No. 21] equals 95

The recorded Plant response rating, Morningglory for entry Cc1ccc2ccc(C)c(-c3c(O)c(Cl)nn(C)c3=O)c2c1 [Cpd. No. 20] equals 95

The recorded Plant response rating, Morningglory for entry Cc1ccc2ccc(Cl)cc2c1-c1c(O)c(Cl)nn(C)c1=O [Cpd. No. 22] equals 85

---

Here the recorded Plant response rating, Nutsedge, Yellow is given for each entry.
System: nutsedge, yellow (Cyperus esculentus)
Assay: Test C pre-/postemergence greenhouse test
Type: in vivo
Settings: Preemergence, 61 g ai/ha; scale 0 to 100
Note: the reply should be a number with no unit written.

Some molecules with recorded Plant response rating, Nutsedge, Yellow:
{"STRUCTURE NOTATION": "Cc1ccc2ccc(Cl)cc2c1-c1c(O)c(Cl)nn(C)c1=O", "ASSAYED SYSTEM": "nutsedge, yellow (Cyperus esculentus)", "REPORTED METRIC": "Plant response rating, Nutsedge, Yellow", "RECORDED NUMBER": 25}
{"STRUCTURE NOTATION": "Cc1ccc2ccc(C)c(-c3c(O)c(Cl)nn(C)c3=O)c2c1", "ASSAYED SYSTEM": "nutsedge, yellow (Cyperus esculentus)", "REPORTED METRIC": "Plant response rating, Nutsedge, Yellow", "RECORDED NUMBER": 40}
{"STRUCTURE NOTATION": "Cc1cc(Cl)c2ccccc2c1-c1c(O)c(Cl)nn(C)c1=O", "ASSAYED SYSTEM": "nutsedge, yellow (Cyperus esculentus)", "REPORTED METRIC": "Plant response rating, Nutsedge, Yellow", "RECORDED NUMBER": 10}

The recorded Plant response rating, Nutsedge, Yellow for entry Cc1ccc2ccc(F)cc2c1-c1c(O)c(Cl)nn(C)c1=O equals 30
